Target: Adenosine receptor A2a (Homo sapiens, UniProt P29274)
Sequence (P29274 whole entry): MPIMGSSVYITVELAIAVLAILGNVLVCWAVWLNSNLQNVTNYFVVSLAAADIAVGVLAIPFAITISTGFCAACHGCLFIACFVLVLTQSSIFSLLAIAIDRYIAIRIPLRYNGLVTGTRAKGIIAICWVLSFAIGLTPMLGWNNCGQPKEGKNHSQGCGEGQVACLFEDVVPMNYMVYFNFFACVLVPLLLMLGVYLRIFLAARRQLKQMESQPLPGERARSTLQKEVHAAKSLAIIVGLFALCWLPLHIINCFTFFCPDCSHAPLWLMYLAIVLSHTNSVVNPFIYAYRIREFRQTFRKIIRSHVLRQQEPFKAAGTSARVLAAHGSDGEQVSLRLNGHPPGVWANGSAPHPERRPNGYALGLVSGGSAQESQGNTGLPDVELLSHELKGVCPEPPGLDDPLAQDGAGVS
Assay: Antagonist activity at human A2AR expressed in CHO cells assessed as inhibition of CGS21680-stimulated cAMP production by alphascreen assay
Task for the reader: assign each of the following compounds its reported IC50.
The reply should be a number in nM, with the unit left off.

**Query** GET /values?readout=IC50&item= N#Cc1c(N)nc(SCc2cccnc2)c(C#N)c1-c1ccco1
**Result** 83

**Query** // same read-out, input: N#Cc1c(N)nc(SCc2cccc(C(N)=O)c2)c(C#N)c1-c1ccco1
**Result** 58

**Query** One more compound: COC(=O)c1cccc(CSc2nc(N)c(C#N)c(-c3ccco3)c2C#N)c1
**Result** 313

**Query** What do we get for N#Cc1c(N)nc(SCc2cccc(CO)c2)c(C#N)c1-c1ccco1 ?
**Result** 22

* * *

Could you please report measured half-life at 1 µM for the items listed next?
Test: Half life in human plasma at 1 uM by LC-MS/MS analysis
Assay type: ADME, cell-free

**Query** Given the compound COC(=O)c1cccc(CSc2nc(N)c(C#N)c(-c3ccco3)c2C#N)c1 , what is its reported half-life at 1 µM?
**Result** ≥ 4 h

**Query** Next record, please: CCOC(=O)C(C)c1cccc(C(=O)c2ccccc2)c1 (configuration not stated)
**Result** 1.67 h

* * *

Biological target: Adenosine receptor A1 (Homo sapiens) (UniProt P30542)
Sequence (P30542 whole entry): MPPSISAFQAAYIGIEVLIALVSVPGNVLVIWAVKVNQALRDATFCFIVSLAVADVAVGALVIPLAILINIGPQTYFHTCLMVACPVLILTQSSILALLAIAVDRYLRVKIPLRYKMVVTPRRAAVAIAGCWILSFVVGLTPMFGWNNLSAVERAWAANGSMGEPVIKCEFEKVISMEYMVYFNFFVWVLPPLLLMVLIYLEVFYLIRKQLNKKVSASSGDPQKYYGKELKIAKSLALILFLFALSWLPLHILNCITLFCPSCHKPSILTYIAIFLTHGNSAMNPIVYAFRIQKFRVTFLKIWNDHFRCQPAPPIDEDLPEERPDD
Assay: Inverse agonist activity at human A1AR expressed in CHO cells assessed as increase in forskolin-stimulated cAMP production by alphascreen assay relative to DPCPX
Type: functional, cell-based
reported endpoint: Emax

**Query** May I ask what Emax has been recorded for N#Cc1c(N)nc(SCCO)c(C#N)c1-c1cccs1 ?
**Result** 74%

**Query** Please answer likewise for N#Cc1c(N)nc(SCc2cccnc2)c(C#N)c1-c1ccco1
**Result** 47%

**Query** Would you mind doing N#Cc1c(N)nc(SCCO)c(C#N)c1-c1ccoc1 as well?
**Result** 39%

**Query** COC(=O)c1cccc(CSc2nc(N)c(C#N)c(-c3cccnc3)c2C#N)c1 , same question.
**Result** 72%

**Query** Subsequent entry: N#Cc1c(N)nc(SCc2cccc(CO)c2)c(C#N)c1-c1ccco1
**Result** 98%

**Query** // next record N#Cc1c(N)nc(SCc2cccc(C(N)=O)c2)c(C#N)c1-c1ccco1
**Result** 31%

**Query** Subsequent entry: COC(=O)c1ccc(CSc2nc(N)c(C#N)c(-c3ccco3)c2C#N)o1
**Result** 24%

**Query** Follow-up item: COC(=O)c1cccc(CSc2nc(N)c(C#N)c(-c3ccco3)c2C#N)c1
**Result** 35%

**Query** N#Cc1c(N)nc(SCCO)c(C#N)c1-c1cccnc1 , same question.
**Result** 75%

**Query** Also COC(=O)c1cccc(CSc2nc(N)c(C#N)c(-c3cccs3)c2C#N)c1 , if possible.
**Result** 56%

**Query** Field entry: N#Cc1c(N)nc(SCCO)c(C#N)c1-c1ccsc1
**Result** 62%

* * *

Molecular target: Adenosine receptor A2b (Homo sapiens)
Experiment: Agonist activity at human A2B expressed in CHO cells assessed as stimulation of cAMP production at 1 uM by alphascreen assay relative to NECA
Type: functional, cell-based
Task for the reader: assign each of the following compounds its reported Efficacy.
Give your result in % as a bare value.

**Query** // lookup Efficacy for N#Cc1c(N)nc(SCCO)c(C#N)c1-c1ccoc1
**Result** 32

**Query** Then CCCn1c(=O)c2[nH]c(C3CCCC3)nc2n(CCC)c1=O ?
**Result** 1

**Query** Try the compound N#Cc1c(N)nc(SCCO)c(C#N)c1-c1cccs1
**Result** 69

**Query** Field entry: N#Cc1c(N)nc(SCc2ccccn2)c(C#N)c1-c1ccco1
**Result** 9

**Query** Also need N#Cc1c(N)nc(NCCO)c(C#N)c1-c1ccco1 , thanks.
**Result** 1

**Query** Please do the same for N#Cc1c(N)nc(SCc2cccc(C(=O)O)c2)c(C#N)c1-c1ccco1 as well.
**Result** 1
